# EXPERIMENT_SUMMARY: CHI Log D procedure
# Format: physicochemical
# SETTINGS: pH 7.4, CHI Log D
Listing of entries alongside the reported chromatographic logD.
Hey, just send me the number, nothing else.

compound=CC(=O)N[C@@H](Cc1ccccc1)C(=O)N[C@@H](CC(=O)O)C(=O)N[C@@H](C)C(=O)N[C@]1(C)CCCCCCC=CCOC(=O)N2CC[C@@](C(=O)N[C@@H](Cc3ccccc3)C(=O)N[C@@H](Cc3c[nH]c4ccccc34)C(=O)N[C@@H](CCC(N)=O)C(N)=O)(C2)NC(=O)[C@H](C(C)C)NC(=O)[C@H](Cc2ccccn2)NC(=O)[C@H](C)NC(=O)[C@H](C)NC(=O)[C@H](CC(=O)O)NC(=O)[C@H](CC(=O)O)NC1=O recorded_result=1.24
compound="CC(=O)N1CCC[C@]12CC=CCCCC1(CCCC=CCCCCCC[C@@](C)(C(=O)N[C@@H](Cc3ccccc3)C(=O)N[C@@H](Cc3c[nH]c4ccccc34)C(=O)N[C@@H](CCC(N)=O)C(N)=O)NC(=O)[C@H](C(C)C)NC(=O)[C@H](Cc3ccccc3)NC(=O)[C@H](C)NC(=O)[C@H](C)NC(=O)[C@H](CCC(=O)O)NC(=O)[C@H](Cc3ccncc3)NC1=O)NC(=O)[C@H](C)NC(=O)[C@H](CC(=O)O)NC2=O (stereo partly shown)" recorded_result=2.7
compound="CC(=O)N1CCC[C@]12CC=CCCCC1(CCCC=CCCCCCC[C@@](C)(C(=O)N[C@@H](Cc3ccccc3)C(=O)N[C@@H](Cc3csc4ccccc34)C(=O)N[C@@H](Cc3c[nH]cn3)C(=O)N[C@H](C)C(N)=O)NC(=O)[C@H](CC(N)=O)NC(=O)[C@H](Cc3ccccc3)NC(=O)[C@H](C)NC(=O)[C@H](C)NC(=O)[C@H](CCC(=O)O)NC(=O)[C@H](CC(=O)O)NC1=O)NC(=O)[C@H](CC(C)C)NC(=O)[C@H](CC(=O)O)NC2=O (stereo partly shown)" recorded_result=2.41

Exam item: Endpoint output: chromatographic logD of CC(=O)N1CCC[C@]12CC=CCCCC1(CCCC=CCCCCCC[C@@](C)(C(=O)N[C@@H](Cc3ccccc3Cl)C(=O)N[C@@H](Cc3csc4ccccc34)C(=O)N[C@H](C(N)=O)[C@@H](C)O)NC(=O)[C@H]([C@@H](C)O)NC(=O)[C@H](Cc3ccccc3)NC(=O)[C@H](C)NC(=O)[C@H](C)NC(=O)[C@H](CC(=O)O)NC(=O)[C@H](CC(=O)O)NC1=O)NC(=O)[C@H](CC(C)(C)C)NC(=O)[C@H](CC(=O)O)NC2=O (stereo partly shown) . Value?
Marked response: 2.98

Exam item: For CC(=O)N1CCC[C@]12CC=CCCCC1(CCCC=CCCCCCC[C@@](C)(C(=O)N[C@@H](Cc3ccccc3)C(=O)N[C@@H](Cc3c[nH]c4ccccc34)C(=O)N[C@@H](CCC(N)=O)C(N)=O)NC(=O)[C@H](C(C)C)NC(=O)[C@H](Cc3ccccc3)NC(=O)[C@H](C)NC(=O)[C@H](C)NC(=O)[C@H](CCCC(=O)O)NC(=O)[C@H](CC(=O)O)NC1=O)NC(=O)[C@H](C)NC(=O)[C@H](CC(=O)O)NC2=O (stereo partly shown) , what is its reported chromatographic logD?
Marked response: 2.11

Exam item: Entry CC(=O)N1CCC[C@]12CC=CCCCC1(CCCC=CCCCCCC[C@@](C)(C(=O)N[C@@H](Cc3ccccc3)C(=O)N[C@@H](Cc3csc4ccccc34)C(=O)N[C@@H](Cc3c[nH]cn3)C(N)=O)NC(=O)[C@H](CC(N)=O)NC(=O)[C@H](Cc3ccccc3)NC(=O)[C@H](C)NC(=O)[C@H](C)NC(=O)[C@H](CC(=O)O)NC(=O)[C@H](CC(=O)O)NC1=O)NC(=O)[C@H](CC(C)(C)C)NC(=O)[C@H](CC(=O)O)NC2=O (stereo partly shown) has what chromatographic logD?
Marked response: 2.5

Exam item: May I ask what chromatographic logD has been recorded for "CCCC[C@@H]1NC(=O)[C@H](C)NC(=O)[C@H](C)NC(=O)[C@H](CC(=O)O)NC(=O)[C@H](CC(=O)O)NC(=O)[C@](C)(NC(=O)[C@H](C)NC(=O)[C@H](CC(=O)O)NC(=O)[C@H](Cc2ccccc2)NC(C)=O)CCCCCCC=CCOC(=O)N2CC[C@@](C(=O)N[C@@H](Cc3ccccc3)C(=O)N[C@@H](Cc3c[nH]c4ccccc34)C(=O)N[C@@H](CCC(N)=O)C(N)=O)(C2)NC(=O)[C@H](C(C)C)NC1=O" ?
Marked response: 1.2

Exam item: Param item = CC(=O)N1CCC[C@]12CC=CCCCC1(CCCC=CCCCCC[C@@](C)(C(=O)N[C@@H](Cc3ccccc3)C(=O)N[C@@H](Cc3c[nH]c4ccccc34)C(=O)N[C@@H](CCC(N)=O)C(N)=O)NC(=O)[C@H](C(C)C)NC(=O)[C@H](Cc3ccccc3)NC(=O)[C@H](C)NC(=O)[C@H](C)NC(=O)[C@H](CCC(=O)O)NC(=O)[C@H](CC(=O)O)NC1=O)NC(=O)[C@H](C)NC(=O)[C@H](CC(=O)O)NC2=O (stereo partly shown) ; retrieve measured chromatographic logD.
Marked response: 1.69

Exam item: Suppose we examine the compound "CC(=O)N[C@@H](Cc1ccccc1)C(=O)N[C@@H](CC(=O)O)C(=O)N[C@@H](C)C(=O)N[C@]1(C)CCCCCCC=CCOC(=O)N2CC[C@@](C(=O)N[C@@H](Cc3ccccc3)C(=O)N[C@@H](Cc3c[nH]c4ccccc34)C(=O)N[C@@H](CCC(N)=O)C(N)=O)(C2)NC(=O)[C@H](C(C)C)NC(=O)[C@H](Cc2ccccc2)NC(=O)[C@H](C)NC(=O)[C@H](C)NC(=O)[C@H](Cc2cccc3ccccc23)NC(=O)[C@H](CC(=O)O)NC1=O" ; what chromatographic logD value has been reported?
Marked response: 2.11

Exam item: Data request, read-out chromatographic logD, for CC[C@H](C)[C@@H]1NC(=O)[C@H](CC(=O)O)NC(=O)[C@]2(CC=CCCCC3(CCCC=CCCCCCC[C@@](C)(C(=O)N[C@@H](Cc4ccccc4)C(=O)N[C@@H](Cc4csc5ccccc45)C(=O)N[C@@H](CCC(N)=O)C(N)=O)NC(=O)[C@H](CCC(N)=O)NC(=O)[C@H](Cc4ccccc4)NC(=O)[C@H](C)NC(=O)[C@H](C)NC(=O)[C@H](CCC(=O)O)NC(=O)[C@H](CC(=O)O)NC3=O)NC1=O)CCCN2C(=O)c1cccnc1 (stereo partly shown)
Marked response: 2.24
